Numbers sourced from patent US20240316047A1.

Molecular target: Human recombinant DHX9 protein (Homo sapiens (Human), UniProt Q08211)
Sequence (Q08211 whole entry): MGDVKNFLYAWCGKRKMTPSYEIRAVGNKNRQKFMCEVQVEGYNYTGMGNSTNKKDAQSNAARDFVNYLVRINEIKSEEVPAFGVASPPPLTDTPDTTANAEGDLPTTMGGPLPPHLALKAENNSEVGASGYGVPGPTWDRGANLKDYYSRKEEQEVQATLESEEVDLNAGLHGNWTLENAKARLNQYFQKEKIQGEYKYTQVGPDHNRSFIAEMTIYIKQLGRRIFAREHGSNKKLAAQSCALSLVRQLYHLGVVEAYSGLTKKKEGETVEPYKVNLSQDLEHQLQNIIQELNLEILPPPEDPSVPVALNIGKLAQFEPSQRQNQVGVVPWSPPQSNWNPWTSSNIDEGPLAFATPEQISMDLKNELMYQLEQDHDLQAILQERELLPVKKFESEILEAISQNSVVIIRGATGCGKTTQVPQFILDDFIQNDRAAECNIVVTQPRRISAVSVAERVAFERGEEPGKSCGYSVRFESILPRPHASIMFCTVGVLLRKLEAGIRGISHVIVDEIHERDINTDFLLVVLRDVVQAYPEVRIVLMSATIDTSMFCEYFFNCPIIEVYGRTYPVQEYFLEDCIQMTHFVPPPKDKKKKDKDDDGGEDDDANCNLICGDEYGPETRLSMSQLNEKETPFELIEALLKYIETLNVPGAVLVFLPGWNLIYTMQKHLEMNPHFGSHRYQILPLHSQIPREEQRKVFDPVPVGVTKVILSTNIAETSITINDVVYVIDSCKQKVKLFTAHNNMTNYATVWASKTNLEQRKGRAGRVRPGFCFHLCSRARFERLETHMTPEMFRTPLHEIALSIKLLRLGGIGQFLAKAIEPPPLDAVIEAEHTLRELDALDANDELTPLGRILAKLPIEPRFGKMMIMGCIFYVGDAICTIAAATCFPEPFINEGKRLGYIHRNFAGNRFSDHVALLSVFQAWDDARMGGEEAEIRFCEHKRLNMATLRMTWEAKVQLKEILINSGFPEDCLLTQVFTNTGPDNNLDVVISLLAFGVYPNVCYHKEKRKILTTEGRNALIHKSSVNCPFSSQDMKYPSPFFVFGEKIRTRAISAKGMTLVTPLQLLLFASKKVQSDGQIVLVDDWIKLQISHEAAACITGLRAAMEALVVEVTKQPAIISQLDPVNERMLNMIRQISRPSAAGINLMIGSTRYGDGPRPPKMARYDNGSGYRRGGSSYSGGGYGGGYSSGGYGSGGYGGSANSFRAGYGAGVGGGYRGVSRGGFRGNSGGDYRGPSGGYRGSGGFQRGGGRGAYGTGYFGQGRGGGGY
Test: DHX9 ATPase assay (ADP-Glo)
Assay type: biochemical
measured_parameter: DHX9 Biochemical Max Inhibition (%)

Cc1cc(C(=O)Nc2cc(F)cc(NS(C)(=O)=O)c2)c[nH]1 [Example 5] :: 74.6
CS(=O)(=O)Nc1cc(Cl)cc(NC(=O)c2cc3c(F)cccc3s2)c1 [Example 296] :: 69.9
CS(=O)(=O)Nc1cc(Cl)cc(NC(=O)c2cc(N3CCOCC3)cs2)c1 [Example 245] :: 71.4

* * *

Target: Human recombinant DHX9 protein (Homo sapiens (Human), UniProt Q08211)
Assay: DHX9 ATPase assay (ADP-Glo)
Type: biochemical
measured_parameter: DHX9 Biochemical Max Inhibition (%)

COc1ccc(-n2cc(C(=O)Nc3cc(Cl)cc(NS(C)(=O)=O)c3)cn2)nc1 :: 72.7
CS(=O)(=O)Nc1cc(Cl)cc(NC(=O)c2cc(-c3ncc(F)cn3)cs2)c1 :: 78

* * *

Target: Human recombinant DHX9 protein (Homo sapiens (Human))
Assay: DHX9 ATPase assay (ADP-Glo)
Format: biochemical
measured_parameter: DHX9 Biochemical Max Inhibition

CC(C)Oc1cnc(-c2csc(C(=O)Nc3cc(Cl)cc(NS(C)(=O)=O)c3)c2)c(F)c1 :: 60.2
Cc1cc(N2CC(F)(F)C2)cnc1-c1cc(C(=O)Nc2cc(Cl)cc(NS(C)(=O)=O)c2)cn1C :: 46.1
CCS(=O)(=O)Nc1cc(Cl)cc(NC(=O)c2cc(-c3ncc(C(F)(F)F)cc3C)c(C)s2)c1 :: 85.6

[P] Cc1cccnc1-c1csc(C(=O)Nc2cc(Cl)cc(NS(C)(=O)=O)c2)c1C
[Q] Cn1cc(C(=O)Nc2cc(Cl)cc(NS(C)(=O)=O)c2)cc1-c1ncc(N2CC(F)(F)C2)cc1F
Could you please tell me which of these two has the higher DHX9 Biochemical Max Inhibition: P or Q ? Kindly state the label of the option you pick.
Q

* * *

Biological target: Human recombinant DHX9 protein (Homo sapiens (Human), UniProt Q08211)
Assay: DHX9 ATPase assay (ADP-Glo)
Assay type: biochemical
measured_parameter: DHX9 Biochemical Max Inhibition (%)

CS(=O)(=O)Nc1cc(F)cc(NC(=O)c2cc(-c3ccccc3O)cs2)c1 [Example 114] :: 66.4
CS(=O)(=O)Nc1cc(F)cc(NC(=O)c2cc(-c3cccnc3)cs2)c1 [Example 105] :: 71.7
CS(=O)(=O)Nc1cc(Cl)cc(NC(=O)c2cnn(-c3ncccc3OCc3cnco3)c2)c1 [Example 66] :: 62.9
CS(=O)(=O)Nc1cc(Cl)cc(NC(=O)c2cc(-c3ncccc3COc3cc(F)cc(F)c3)cs2)c1 [Example 228] :: 67.2
CS(=O)(=O)Nc1cc(Cl)cc(NC(=O)c2cnn(-c3ncccc3OCc3ncc[nH]3)c2)c1 [Example 252] :: 72.1
CS(=O)(=O)Nc1cc(Cl)cc(NC(=O)c2cc(-c3ccccc3)n(CC(F)(F)F)c2)c1 [Example 80] :: 71.2
CCS(=O)(=O)Nc1cc(Cl)cc(NC(=O)c2cc(-c3ncc(OC)cn3)c(C)s2)c1 [Example 353] :: 69.2

* * *

Target: Human recombinant DHX9 protein (Homo sapiens (Human), UniProt Q08211)
Test: DHX9 ATPase assay (ADP-Glo)
Type: biochemical
measured_parameter: DHX9 Biochemical Max Inhibition

Cc1cc(C(=O)Nc2cc(Cl)cc(NS(C)(=O)=O)c2)cn1-c1ccc(N(C)C2CCOC2)cn1 (stereo not shown) [Example 675] :: 71.2
CCOc1cnc(-c2cc(C(=O)Nc3cc(Cl)cc(NS(C)(=O)=O)c3)sc2C)c(F)c1 [Example 456] :: 61.5
Cc1sc(C(=O)Nc2cc(Cl)cc(NS(C)(=O)=O)c2)cc1-c1ncc(OC(C)CO)cn1 (stereo not shown) [Example 677] :: 75.1
Cc1sc(C(=O)Nc2cc(Cl)cc(NS(C)(=O)=O)c2)cc1-c1ncc(P(C)(C)=O)cn1 [Example 648] :: 69.1

* * *

Molecular target: Human recombinant DHX9 protein (Homo sapiens (Human))
Assay: DHX9 ATPase assay (ADP-Glo)
Format: biochemical
measured_parameter: DHX9 Biochemical Max Inhibition (%)

CCS(=O)(=O)Nc1cc(Cl)cc(NC(=O)c2cc(-c3ncc(F)cc3Cl)c(C)s2)c1 :: 69.9
CS(=O)(=O)Nc1cc(Cl)cc(NC(=O)c2cnn([C@H]3CCC[C@H]3Oc3ccccc3)c2)c1 (single isomer, unassigned) :: 69.2
Cc1cccnc1-n1cc(C(=O)Nc2cc(Cl)cc(NS(C)(=O)=O)c2)cn1 :: 66.6

* * *

Target: Human recombinant DHX9 protein (Homo sapiens (Human), UniProt Q08211)
Test: DHX9 ATPase assay (ADP-Glo)
Conditions: read-out: DHX9 Biochemical Inflection Point
pIC50: −log10 of the molar value.
measured_parameter: pIC50

Cn1cc(C(=O)Nc2cc(Cl)cc(NS(C)(=O)=O)c2)cc1-c1ncc(F)cn1 :: 7.84
Cc1cccnc1-c1cc(C(=O)Nc2cc(Br)cc(NS(C)(=O)=O)c2)cn1C :: 8.00

[I] CCOc1cnc(-c2cc(C(=O)Nc3cc(Cl)cc(NS(C)(=O)=O)c3)cn2C)nc1
[II] CS(=O)(=O)Nc1cc(Br)cc(NC(=O)c2cnn(-c3ccc(N4CCOCC4)cn3)c2)c1
Would you mind telling me which has the lower recorded pIC50 between I and II ? Kindly state the label of the option you pick.
I
(I: 7.80, II: 8.00)

* * *

Target: Human recombinant DHX9 protein (Homo sapiens (Human))
Assay: DHX9 ATPase assay (ADP-Glo)
Assay type: biochemical
measured_parameter: DHX9 Biochemical Max Inhibition (%)

CS(=O)(=O)Nc1cc(Cl)cc(NC(=O)c2cc(-c3ncccc3OCc3cccnc3)n(CC(F)(F)F)c2)c1 :: 80.5
CS(=O)(=O)Nc1cc(Cl)cc(NC(=O)c2coc(-c3ccccc3)c2)c1 :: 56.7
Cc1sc(C(=O)Nc2cc(Cl)cc(NS(C)(=O)=O)c2)cc1-c1ncc(F)cn1 :: 84
Cc1sc(C(=O)Nc2cc(Cl)cc(NS(C)(=O)=O)c2)cc1-c1c(F)cccc1OCc1ccccc1 :: 71
CS(=O)(=O)Nc1cc(Cl)cc(NC(=O)c2cc3ccc(Cl)cn3c2)c1 :: 56.7
CS(=O)(=O)Nc1cc(Br)cc(NC(=O)c2cc(-c3cccnc3)cs2)c1 :: 56.2
CS(=O)(=O)Nc1cc(Cl)cc(NC(=O)c2cc3ccc(Cl)cc3s2)c1 :: 55
CCS(=O)(=O)Nc1cc(Cl)cc(NC(=O)c2cc(-c3ccc(F)cn3)c(C)s2)c1 :: 73
CCS(=O)(=O)Nc1cc(Cl)cc(NC(=O)c2cc(-c3ncc(F)cc3OC)c(C)s2)c1 :: 75.5
CS(=O)(=O)Nc1cc(Cl)cc(NC(=O)c2cnn(-c3ncc(N4CCOCC4)cc3OCc3cccnc3)c2)c1 :: 64.3
COc1cnc(-c2cc(C(=O)Nc3cc(Cl)cc(NS(C)(=O)=O)c3)sc2C)c(C)c1 :: 88.8
Cc1cc(C(=O)Nc2cc(Cl)cc(NS(C)(=O)=O)c2)cn1-c1ccc(N2CCOCC2)cn1 :: 70.6

* * *

Target: Human recombinant DHX9 protein (Homo sapiens (Human))
Test: DHX9 ATPase assay (ADP-Glo)
Settings: read-out: DHX9 Biochemical Inflection Point
pIC50: −log10 of the molar value.
measured_parameter: pIC50

CS(=O)(=O)Nc1cc(Cl)cc(NC(=O)c2cc(-c3ncc(N4CC(C(F)(F)F)C4)cn3)n(CC(F)F)c2)c1 :: 7.02
Cc1cc(C(=O)Nc2cc(Cl)cc(NS(C)(=O)=O)c2)cn1-c1ncc(S(C)(=O)=O)cn1 :: 7.51
Cn1cc(C(=O)Nc2cc(Cl)cc(NS(C)(=O)=O)c2)cc1-c1ccc(N2CCC(F)(F)C2)cn1 :: 7.37
CCS(=O)(=O)Nc1cc(Cl)cc(NC(=O)c2cc(-c3ncc(F)cc3Cl)c(C)s2)c1 :: 7.47

[A] CS(=O)(=O)Nc1cc(Cl)cc(NC(=O)c2cnn(-c3ncccc3OCc3ccn[nH]3)c2)c1
[B] Cc1sc(C(=O)Nc2cc(Cl)cc(NS(C)(=O)=O)c2)cc1-c1ncc(N2CCC(C(F)(F)F)CC2)cc1F
Could you please tell me which of these two has the higher pIC50: A or B ? Kindly state the label of the option you pick.
A
(A: 6.96, B: 6.69)

* * *

Biological target: Human recombinant DHX9 protein (Homo sapiens (Human))
Test: DHX9 ATPase assay (ADP-Glo)
Format: biochemical
Settings: read-out: DHX9 Biochemical Inflection Point
measured_parameter: IC50 (nM)

Some solved entries appear below for comparison.
Cc1cc(C(=O)Nc2cc(F)cc(NS(C)(=O)=O)c2)c[nH]1 :: 215
CS(=O)(=O)Nc1cc(Cl)cc(NC(=O)c2cccc(-n3cccn3)c2)c1 :: 104
CN(C)S(=O)(=O)c1ccc(-n2cc(C(=O)Nc3cc(Cl)cc(NS(C)(=O)=O)c3)cn2)nc1 :: 84.6
CS(=O)(=O)Nc1cc(Br)cc(NC(=O)c2cnn(-c3ccc(F)cn3)c2)c1 :: 70.1
Cc1cc(C)c2cc(C(=O)Nc3cc(Cl)cc(NS(C)(=O)=O)c3)cn2c1 :: 422

[A] Cc1cccnc1-c1csc(C(=O)Nc2cc(F)cc(NS(C)(=O)=O)c2)c1
[B] CS(=O)(=O)Nc1cc(Cl)cc(NC(=O)c2cc(-c3ncc(F)cn3)c(Cl)s2)c1
[C] CS(=O)(=O)Nc1cc(Cl)cc(NC(=O)c2cc(C(F)(F)F)n(-c3ccc(F)cn3)c2)c1
Rank ascending by IC50. Rank them, then answer with their labels in that order.
A, B, C
(A: 10.9 nM, B: 79.1 nM, C: 248 nM)
